Data provenance is PubChem BioAssay (NCI).

Assay: NCI Yeast Anticancer Drug Screen. Data for the mec2-1 strain (AID 157)
Settings: S. cerevisiae mec2-1 strain, at 1.2 µM, active compounds read high
About 79,000 compounds went through this panel and 15% of them were active in at least one assay; those are over-represented in the sample as a whole.
value type: growth inhibition (%)

{"compound": "OC(c1ccc(Br)cc1)(c1cccs1)C1CC1 (stereo unspecified)", "experimental value": 18}
{"compound": "c1cncc(C(Nc2cccc3cccnc23)Nc2cccc3cccnc23)c1", "experimental value": 2}
{"compound": "S=C1NC2=C(CSC/C2=C\\c2ccc(Cl)cc2)C(c2ccc(Cl)cc2)N1 (stereo unspecified)", "experimental value": 0}
{"compound": "O=[N+]([O-])c1ccc2nnnn2c1", "experimental value": -1}
{"compound": "O=C(Cc1ccccc1F)NC1=C(Cl)C(=O)c2ccccc2C1=O", "experimental value": 41}
{"compound": "Cc1c2ccncc2c(C)c2c1oc1ccccc12", "experimental value": 5}
{"compound": "Cc1cnc(/C=N\\NC(N)=S)c2cccc(N)c12", "experimental value": -19}
{"compound": "O=C(N/N=C/c1ccc2c(c1)CCC2)c1ccccc1[N+](=O)[O-]", "experimental value": 0}
{"compound": "CN(C)c1ccc(C(c2ccc(Cl)cc2)c2ccc(N(C)C)cc2)cc1", "experimental value": 31}
{"compound": "C[n+]1c(-c2ccc(NC(=O)c3ccc(C(=O)Nc4ccc(-c5cn6ccccc6[n+]5C)cc4)cc3)cc2)cn2ccccc21", "experimental value": 4}
{"compound": "CC1(C)CC(=O)C(C(CC(c2ccccc2)c2cc3c(cc2O)OCO3)C2=C(O)CC(C)(C)CC2=O)=C(O)C1 (stereo unspecified)", "experimental value": -6}
